molecular target: Tyrosinase (Agaricus bisporus) (UniProt O42713); test: Inhibition of mushroom tyrosinase at 200 uM
Sequence (O42713 whole entry): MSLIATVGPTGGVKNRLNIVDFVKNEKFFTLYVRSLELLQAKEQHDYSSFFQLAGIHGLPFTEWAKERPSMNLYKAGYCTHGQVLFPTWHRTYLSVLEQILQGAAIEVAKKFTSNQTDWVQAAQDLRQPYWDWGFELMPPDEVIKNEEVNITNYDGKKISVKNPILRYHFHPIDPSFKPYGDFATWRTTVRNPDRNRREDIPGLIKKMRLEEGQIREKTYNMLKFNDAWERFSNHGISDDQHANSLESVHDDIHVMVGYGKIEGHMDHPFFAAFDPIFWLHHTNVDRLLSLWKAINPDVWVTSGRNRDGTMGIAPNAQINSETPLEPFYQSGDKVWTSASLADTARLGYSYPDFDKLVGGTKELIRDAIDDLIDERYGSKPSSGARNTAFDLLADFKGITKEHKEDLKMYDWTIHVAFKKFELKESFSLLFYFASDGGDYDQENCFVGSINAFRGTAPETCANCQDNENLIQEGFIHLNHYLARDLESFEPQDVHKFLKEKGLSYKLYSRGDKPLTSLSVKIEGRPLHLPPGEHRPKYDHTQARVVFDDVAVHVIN
Observed Property: inhibition (%)
Value expressed in %; do not type the unit.

Give the measured inhibition for "O=C1NC(=S)NC(=O)C1=Cc1ccc(OCCO)cc1" 16.5

Give the measured inhibition for "COCCCCOc1ccc(C=C2C(=O)NC(=S)NC2=O)cc1" 100

Give the measured inhibition for "COCCCCOc1ccc(CC2C(=O)NC(=S)NC2=O)cc1" 9.85

Give the measured inhibition for "COCCOCCOc1ccc(C=C2C(=O)NC(=S)NC2=O)cc1" 100

Give the measured inhibition for "O=C1NC(=O)C(=Cc2ccc(OCCO)cc2)C(=O)N1" 22.4

Give the measured inhibition for "O=C1NC(=O)C(Cc2ccc(OCCO)cc2)C(=O)N1" 5.27

Give the measured inhibition for "COCCOc1ccc(C=C2C(=O)NC(=S)NC2=O)cc1" 100

Give the measured inhibition for "COCCOc1ccc(CC2C(=O)NC(=S)NC2=O)cc1" 100

Give the measured inhibition for "CCCCOCCOc1ccc(C=C2C(=O)NC(=S)NC2=O)cc1" 85.9

Give the measured inhibition for "O=C1NC(=S)NC(=O)C1Cc1ccc(OCCO)cc1" 95.9

Give the measured inhibition for "COCCOCCOc1ccc(C=C2C(=O)NC(=O)NC2=O)cc1" 88.7

Give the measured inhibition for "O=C1CC(=O)NC(=S)N1" 8.21

Source listed as ChEMBL document CHEMBL1154106.
